Listing of pIC50 toward Aldo-keto reductase family 1 member A1 (Rattus norvegicus, UniProt P51635), each taken from a published source.
pIC50: −log10 of the molar value.
Metric Name: pIC50

O=C(c1ccccc1)c1ccn(-c2ccc(O)c(F)c2)c1 :: 4.42

a. O=C(c1cccc(F)c1)c1cc(C(=O)C(F)(F)F)n(-c2cnn(O)c2)c1
b. Cc1ccc(CN2C(=O)C(C(C#N)C(=O)O)c3ccccc32)cc1 (stereo unspecified)
Could you check which of a and b has a smaller value for pIC50? To answer, give the label that identifies your chosen option.
a

====

Several reports have described IC50 for Aldo-keto reductase family 1 member A1 (Rattus norvegicus, UniProt P51635); a selection of those results is presented here.
Metric Name: IC50 (µM)

In the examples that follow, each entry is paired with its recorded IC50.
O=C(NCc1ncc(-c2ccccc2)[nH]1)C1=Cc2ccccc2OC1 :: 5.19
N#CC(C(=O)O)C1C(=O)Nc2ccc(F)cc21 (configuration not stated) :: 6.79
O=C(O)Cn1c(=O)oc2ccc(/C=C/c3ccccc3)cc21 :: 17.4
Cc1ccccc1/C=N/N1C(=O)/C(=C/c2ccc(O)cc2)SC1=S :: 0.635

A. COc1ccc(-c2cnc(CNC(=O)C3=Cc4cccc(OC)c4OC3)[nH]2)cc1
B. O=C1/C(=C/c2ccc(O)cc2)SC(=S)N1/N=C/c1ccc(F)cc1
Parameter metric = IC50. Return the lower-valued option from A and B . Response format: the label of the selected entry.
B
(B: 0.228 µM, A: 1.31 µM)

I. O=C(O)Cn1c2c(c3ccccc31)CN(C(=O)C1CC1)CC2
II. O=C(O)CN1C(=O)C(=O)N(Cc2nc3c(Cl)cccc3s2)C1=O
Higher IC50 between I and II ? Answer format: the label of the selected item.
II

I. COc1ccc(S(=O)(=O)N2C(=O)NC(=O)C23CCCc2ccccc23)cc1 (configuration not stated)
II. COc1cccc2c1OCC(C(=O)N1CCC[C@H]1c1ncc(-c3ccc(Cl)cc3)[nH]1)=C2
Looking only at measured IC50, which entry is lower, I or II ? Select an item and report its label.
II
(II: 3.42 µM, I: 10.6 µM)

I. O=C1/C(=C/c2ccc(O)cc2)SC(=S)N1/N=C/c1ccc(O)cc1
II. COc1cc(/C=C/c2cccc3c2oc(=O)n3CC(=O)O)ccc1O
III. O=C(Cn1c(=O)c(Oc2ccc(O)cc2)nc2ccccc21)NS(=O)(=O)C(F)(F)F
IV. O=C1/C(=C/c2ccc(O)cc2)SC(=S)N1/N=C/c1ccccc1Cl
V. CC(C)(C)c1ccc(-c2cccc3c2oc(=O)n3CC(=O)O)cc1
// smallest IC50 at index 0, largest at the end I would appreciate it if you listed the labels in the requested order.
I, IV, II, III, V
(I: 0.116 µM, IV: 1.76 µM, II: 4.9 µM, III: 73.6 µM, V: 174 µM)

====

The compounds below each have a reported IC50 tested on Aldo-keto reductase family 1 member A1 (Rattus norvegicus, UniProt P51635); the values come from various publications.
Metric Name: IC50 (µM)

Would you please look over these solved cases?
CCNC(=O)Nc1ccc(S(=O)(=O)Nc2cc(F)c(O)c(F)c2)cc1 :: 25.5
COc1ccc(S(=O)(=O)Nc2cc(F)c(O)c(F)c2)cc1 :: 23.8

a. O=C1/C(=C/c2ccc(O)cc2)SC(=S)N1/N=C/c1ccccc1
b. C=C1C(=O)N(CC(=O)O)C(=O)N1Cc1cccc([N+](=O)[O-])c1
c. CC(C)[C@H](NC(=O)C1=Cc2ccccc2OC1)c1ncc(-c2ccc(Br)cc2)[nH]1
Order by IC50, ascending. Present the labels in the sequence the task asks for.
c, a, b
(c: 2.28 µM, a: 21.1 µM, b: 58 µM)

====

// note: IC50 values for Aldo-keto reductase family 1 member A1 (Rattus norvegicus, UniProt P51635) were reported in different studies
Metric Name: IC50 (µM)

Use these answered entries as a reference point.
COc1cccc2c1OCC(C(=O)N1CCC[C@H]1c1ncc(-c3ccccc3)[nH]1)=C2 :: 1.83
CC(C)c1ccc(S(=O)(=O)N2C(=O)NC(=O)C23CCCc2ccccc23)cc1 (stereo unspecified) :: 68.2
O=C(O)CN1CC(=O)Oc2c(/C=C/c3ccc(F)cc3)cccc21 :: 4.28
O=C1NS(=O)(=O)CC12c1ccccc1-c1ccccc12 :: 4.5

1. CCOC(=O)N1CCc2c(c3cc(C(=O)O)ccc3n2CC(=O)O)C1
2. O=S(=O)(c1ccccc1)N(c1cc(F)c(O)c(F)c1)S(=O)(=O)c1ccccc1
3. Cc1ccc(CN2C(=O)C(C(C#N)C(=O)O)c3cc(F)ccc32)cc1 (stereo unspecified)
4. O=C(O)CN1C(=O)C(=O)N(Cc2nc3cc(Cl)ccc3s2)C1=O
5. O=C(c1ccc(OC(F)(F)F)cc1)c1cccn1-c1cc(F)c(O)c(F)c1
Rank descending by IC50. Reply format: the labels, ordered as requested.
4, 5, 2, 1, 3
(4: 58 µM, 5: 16.2 µM, 2: 9.7 µM, 1: 4.84 µM, 3: 0.69 µM)

====

Here, compounds appear alongside IC50 reported for Aldo-keto reductase family 1 member A1 (Rattus norvegicus) in the literature.
Metric Name: IC50 (nM)

O=C(c1ccc(F)cc1)c1cc(C(=O)C(F)(F)F)n(-c2cnn(O)c2)c1 :: 67100
O=C1CC2(c3ccccc3-c3ccc(F)cc32)S(=O)(=O)N1 (stereo not given) :: 151
O=C(Nc1ccc(S(=O)(=O)Nc2cc(F)c(O)c(F)c2)cc1)c1ccccc1 :: 6900
COc1ccc(-c2cnc(CNC(=O)C3=Cc4ccccc4OC3)[nH]2)cc1 :: 2540
O=C(O)Cc1nn(Cc2ccc(Br)cc2F)c(=O)c2ccccc12 :: 2400

A. O=C(O)Cn1c(=O)oc2cc(/C=C/c3ccccc3)ccc21
B. O=C1CC2(C(=O)N1)c1cc(F)ccc1-c1ccc(F)cc12
C. O=[N+]([O-])c1ccc(S(=O)(=O)N(Cc2ccc(Br)cc2F)c2cc(F)c(O)c(F)c2)cc1
D. COc1ccc(CCc2cccc3c2oc(=O)n3CC(=O)O)cc1
Task for the reader: rank each entry by its IC50, from the minimum upward. Output the labels ranked as instructed.
B, A, C, D
(B: 9 nM, A: 2570 nM, C: 15400 nM, D: 174000 nM)

====

Target or system Aldo-keto reductase family 1 member A1 (Rattus norvegicus, UniProt P51635); metric pIC50; compiled from varied reports.
pIC50: −log10 of the molar value.
Metric Name: pIC50

See these solved cases before continuing.
COc1cccc2c1OCC(C(=O)N1CCC[C@H]1c1ncc(-c3cccnc3)[nH]1)=C2 :: 5.85
O=S(=O)(Nc1cc(F)c(O)c(F)c1)c1ccccc1 :: 4.71
O=C(c1cccn1-c1cc(F)c(O)c(F)c1)C(F)(F)F :: 4.72

I. CC(=O)N1CCc2c(c3ccccc3n2CC(=O)O)C1
II. O=C1NS(=O)(=O)CC12c1ccccc1-c1ccc(Cl)cc12 (stereo not given)
III. O=C(NCc1ncc(-c2ccc(F)cc2)[nH]1)C1=Cc2ccccc2OC1
Arrange by pIC50, high to low. Order the labels as requested and list them.
III, II, I

====

pIC50: −log10 of the molar value.
Assay read-out pIC50 on Aldo-keto reductase family 1 member A1 (Rattus norvegicus, UniProt P51635); records merged from the literature.
Metric Name: pIC50

O=C(c1ccn(-c2cc(F)c(O)c(F)c2)c1)c1ccc(Br)cc1F :: 5.37
COc1cccc(C(=O)c2cc(C(=O)C(F)(F)F)n(-c3cnn(O)c3)c2)c1 :: 4.63

a. O=C(O)Cn1c(=O)oc2c(/C=C/c3ccc(C(F)(F)F)cc3)cccc21
b. COc1ccc(C(=O)c2ccn(-c3cnn(O)c3)c2)cc1
Of the pair a and b , name the member with the lesser recorded pIC50. Respond using the label that marks the chosen record.
a
(a: 2.54, b: 4.97)

====

pIC50: −log10 of the molar value.
Below are pIC50 values for Aldo-keto reductase family 1 member A1 (Rattus norvegicus) collected from several publications.
Metric Name: pIC50

1. CC(=O)c1ccc(S(=O)(=O)N2C(=O)NC(=O)C23CCCc2ccccc23)cc1 (stereo not given)
2. O=C(O)CN1CC(=O)Oc2c(/C=C/c3ccc(O)cc3)cccc21
Identify the item whose pIC50 is the smaller number: 1 or 2 Refer to your chosen entry by its label in the reply.
1
(1: 4.49, 2: 5.30)

P. CS(=O)(=O)c1ccc(C(=O)c2cc(C(=O)C(F)(F)F)n(-c3cnn(O)c3)c2)cc1
Q. O=S(=O)(Nc1cc(F)c(O)c(F)c1)c1ccc(-n2cccc2)cc1
R. COc1cccc2c1OCC(C(=O)NCc1ncc(-c3ccc(F)cc3)[nH]1)=C2
Ordering criterion: pIC50; begin with the maximum. Arrange the labels as the request states and list them.
R, P, Q
(R: 5.79, P: 4.14, Q: 3.55)
